Sourced from the kinase profiling compilation of Christmann-Franck et al. (2016)

# target.of.assay: UniProt:P43403
# Sequence (P43403 whole entry, looked up): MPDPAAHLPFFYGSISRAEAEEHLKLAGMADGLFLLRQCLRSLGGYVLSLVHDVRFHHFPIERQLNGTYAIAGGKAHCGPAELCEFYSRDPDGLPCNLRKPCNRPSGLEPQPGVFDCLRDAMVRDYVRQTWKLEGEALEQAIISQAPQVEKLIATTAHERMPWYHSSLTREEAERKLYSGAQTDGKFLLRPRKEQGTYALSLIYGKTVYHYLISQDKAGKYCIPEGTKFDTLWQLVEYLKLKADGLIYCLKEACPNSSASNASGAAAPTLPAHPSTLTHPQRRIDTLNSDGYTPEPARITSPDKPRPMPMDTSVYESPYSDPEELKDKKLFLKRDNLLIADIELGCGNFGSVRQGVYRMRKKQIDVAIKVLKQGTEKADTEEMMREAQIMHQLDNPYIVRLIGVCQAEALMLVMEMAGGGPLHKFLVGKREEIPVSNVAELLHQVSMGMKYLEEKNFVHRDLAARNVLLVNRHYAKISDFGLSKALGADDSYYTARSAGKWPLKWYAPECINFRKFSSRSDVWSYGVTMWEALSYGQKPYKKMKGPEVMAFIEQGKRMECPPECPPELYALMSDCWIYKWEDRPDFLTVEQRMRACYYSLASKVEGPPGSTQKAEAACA
# test.description: KINOMEscan competition binding
# run.conditions: compound 10.0 µM
measure.name: kinase still bound, per cent of control
Quick note: number first, unit second.

COc1cc2ncn(-c3cc(OCc4ccccc4C(F)(F)F)c(C(N)=O)s3)c2cc1OC; 95%

List kinase still bound, per cent of control for every entry below, keeping the order given.
1. COCC(=O)NC/C=C/c1ccc2ncnc(Nc3ccc(Oc4ccc(C)nc4)c(C)c3)c2c1
2. CS(=O)(=O)N1CCN(Cc2cc3nc(-c4cccc5[nH]ncc45)nc(N4CCOCC4)c3s2)CC1
3. C[C@@H](Oc1cc(-c2cnn(C3CCNCC3)c2)cnc1N)c1c(Cl)ccc(F)c1Cl

Result:
1. 100%
2. 100%
3. 29%

In plain terms, `O=C(Nc1cccc(Nc2ncc(Br)c(NCCc3cnc[nH]3)n2)c1)N1CCCC1` has a documented kinase still bound, per cent of control of 7.1%
